# TARGET OR SYSTEM: human recombinant adrenergic α2C receptor (Homo sapiens)
# Construct: expressed in transfected cells; host or cells: insect Sf9 cells
# Sequence (P18825 whole entry): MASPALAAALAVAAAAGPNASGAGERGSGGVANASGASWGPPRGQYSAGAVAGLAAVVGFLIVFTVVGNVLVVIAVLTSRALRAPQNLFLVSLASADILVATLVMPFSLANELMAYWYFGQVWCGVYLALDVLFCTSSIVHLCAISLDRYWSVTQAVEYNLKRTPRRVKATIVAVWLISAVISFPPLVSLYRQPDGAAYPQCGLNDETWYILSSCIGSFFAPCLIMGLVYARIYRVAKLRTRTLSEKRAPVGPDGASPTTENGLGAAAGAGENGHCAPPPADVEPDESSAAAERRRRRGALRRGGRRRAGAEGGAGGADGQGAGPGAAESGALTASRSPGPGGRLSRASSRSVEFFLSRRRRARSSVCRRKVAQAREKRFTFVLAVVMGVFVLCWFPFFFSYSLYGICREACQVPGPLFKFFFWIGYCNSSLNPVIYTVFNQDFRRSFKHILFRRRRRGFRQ
# ASSAY SUMMARY: Adrenergic α2C radioligand binding assay ([3H]MK-912)
# ASSAY CONTEXT: compound at 0.1 μM; 1 nM [3H]MK-912; insect Sf9 cells; read-out: Percent Inhibition of ligand binding, Adrenergic (0.1 μM) a2C
MEASUREMENT NAME: inhibition at 0.1 µM
Phrase the answer as number then unit, nothing more needed.

| MOLECULE | TARGET OR SYSTEM | inhibition at 0.1 µM |
| --- | --- | --- |
| Cc1ccc2c(c1)c1c(n2CC(C)(O)c2ccc(O)cc2)CCN(C)C1 (stereo not drawn) | human recombinant adrenergic α2C receptor (Homo sapiens) | 5% |

[in] // returns reported inhibition at 0.1 µM for input Cc1ccc2c(c1)c1c(n2CC(C)(C)c2ccncc2)CCN(C)C1
[out] 43%

[in] // returns reported inhibition at 0.1 µM for input Cc1ccc2c(c1)c1c(n2CCc2ccc(C)nc2)CCN(CC(F)(F)F)C1
[out] -1%

[in] // returns reported inhibition at 0.1 µM for input CN1CCc2c(c3cccc(Cl)c3n2CC(C)(O)c2ccncc2)C1 (stereo not drawn)
[out] 19%

[in] // returns reported inhibition at 0.1 µM for input CC[C@@](O)(Cn1c2c(c3cc(C)ccc31)CN(C)CC2)c1ccncc1
[out] -5%

[in] // returns reported inhibition at 0.1 µM for input COc1ccc([C@@](C)(O)Cn2c3c(c4cc(C)ccc42)CN(C)CC3)cc1
[out] 16%
